- Test Method Notes: HepG2 cell viability effects, profiling panel, calcein-AM fluorescence, 48 h, basal (AID 1164); further: test concentration not given here
- Condition Info: higher = more signal
// NOT MET strictly below -0.07 in z-score; MET otherwise

{"columns": ["Compound", "Group"],
 "data": [
  ["O=C(N1CCCCC1)[C@@]1(Cc2ccccc2)COC(c2ccc(OCCCO)cc2)=N1", "NOT MET"],
  ["C=C[C@H](COC(C)=O)NS(=O)(=O)c1ccc(Br)cc1", "MET"],
  ["COc1ccc([Si](C)(C)[C@H]2[C@H](CC(=O)N3Cc4ccccc4C[C@H]3CO)O[C@@]3(C(=O)N(Cc4cccc(N5CCCCC5=O)c4)c4ccccc43)[C@@H]2C)cc1", "NOT MET"],
  ["COc1cc(CO)cc(I)c1O[C@H]1C=C(C(=O)NCCO)C[C@@H](NCc2ccccc2F)[C@@H]1O", "MET"],
  ["COC(=O)C1(Cc2ccccc2)C=C2C(=C(C(C)C)C(=O)C2C)CN1 (stereo not drawn)", "NOT MET"]
]}

Qu. Please tell me: is the compound CO[C@H]1O[C@H](CO)[C@@H](OC(=O)Nc2ccc(Oc3ccccc3)cc2)[C@H](OC(=O)Nc2ccccc2-c2ccccc2)[C@@H]1OC(=O)Nc1ccccc1-c1ccccc1 at or over -0.07 in terms of z-score?
Ans. NOT MET

Qu. Threshold query (z-score >= -0.07) on CCC[C@@H]1C[C@@]1(CCC)[C@@H](NP(=O)(c1ccccc1)c1ccccc1)c1ccc(Cl)cc1
Ans. NOT MET

Qu. Please check the record CC1CC/C=C\[C@H]2OC34C=CCN(C(C)C)C(=O)[C@H]3N(CCCCCO)C(=O)[C@@H]4C2C(=O)O1 (stereo partly drawn) and state if its z-score is at or above -0.07.
Ans. MET

Qu. # check: z-score of CC=CC(O)C1C=CC2C(=O)N(c3ccccc3)C(=O)C2N1Nc1ccc([N+](=O)[O-])cc1 (stereo not drawn) is greater than or equal to -0.07
Ans. MET

Qu. Say whether CN(C)CCCNC(=O)[C@@H]1c2ccccc2C(=O)N(Cc2ccc(OC(F)(F)F)cc2)[C@H]1c1ccc(CO)cc1 shows z-score of -0.07 or more.
Ans. NOT MET

Qu. // inclusive: z-score at least -0.07? input: Cc1ccc(F)cc1S(=O)(=O)N[C@@H]1CCN(Cc2ccc(Oc3ccccc3)cc2)C1
Ans. NOT MET

Qu. Exam item: decide whether the reported z-score for COc1cc(CO)cc(I)c1O[C@H]1C=C(C(=O)NCCO)C[C@@H](N(Cc2ccc(F)cc2)C(=O)C2CCCO2)[C@@H]1O (stereo partly drawn) is at least -0.07.
Ans. MET

----------
- Test Method Notes: binders of probe aFGF2 on microarray, primary screen, stem cell growth factor project, biochemical, small-molecule microarray, fluorescence 635/667 (AID 1067);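 further: measures binding of biotinylated aFGF2 protein to printed compounds on slides; z-score merges feature fluorescence and signal-to-noise across triplicate slides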
- Condition Info: higher = more signal
Listed here are compounds together with their documented composite z-score.
# print the numeric value only

Please review the following examples before continuing.
{"columns": ["Compound", "composite z-score"],
 "data": [
  ["C=CCNC(=O)[C@H]1[C@@H]2C(=O)O[C@@H](c3ccccc3)[C@@H](c3ccccc3)N2[C@@H](c2ccccc2OCCO)[C@]12C(=O)N(C(=O)OCCOC)c1ccc(C#CC3=CCCCC3)cc12", 0.032],
  ["CC(C)C(O)C1C=CC2C(=O)N(C)C(=O)C2N1Nc1ccccc1 (configuration not stated)", 0.364],
  ["[N-]=[N+]=Nc1ccccc1C[C@@]1(C(=O)O)N=C(c2ccc(OCCCO)cc2)O[C@@H]1c1ccccc1", 0.0248]
]}

Continue with the compound presented below.
For reference, reported composite z-score for O=C1c2ccccc2[C@](Cc2ccccc2I)(C(=O)NCc2ccccc2)[C@H](c2ccc(CO)cc2)N1C1CCCCC1 stands at -0.0291

----------
- Test Target: Torsin-1A (Homo sapiens)
- Test Method Notes: small-molecule binders of mutant TOR1A in lysate, primary screen, cell lysate, small-molecule microarray, COS7 lysate, 635/667 nm fluorescence (AID 1150);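 further: score pools 667 nm emission and signal to noise measuring lysate protein binding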
- Condition Info: COS7 hTOR1A mutant lysate, 635 nm fluorescence, higher = more signal
Quantity Measured: composite z-score
# print the numeric value only

Examples with their reported composite z-score follow.
{"columns": ["Molecule", "composite z-score"],
 "data": [
  ["C=CCC(OC(C)=O)[C@@H]1[C@@H](N(Cc2cc3ccccc3o2)C(=O)c2ccc(C)cc2)c2cc(OCCCO)ccc2N1C(=O)Cc1ccc2ccccc2c1 (some centres not stated)", -0.0619],
  ["C=C(CCCC)C(=O)CC[C@@H](OC(=O)c1cccnc1)c1ccccc1OCCO", 0.781],
  ["C=C[C@H](COC(C)=O)NS(=O)(=O)c1ccc(Br)cc1", -0.214],
  ["CN(C)CCCN1C(=O)[C@@]2(c3ccc([N+](=O)[O-])cc3)CC(=O)N(CC34CC5CC(CC(C5)C3)C4)[C@@H]2c2ccc(CO)cc21", -0.17]
]}

Please fill in: composite z-score reported for C=CC[C@@H](OC(=O)Nc1ccc(OC)cc1)c1ccc(OCCO)cc1 = -3

So for CCCCN1CC=CC23O[C@@H]4C=CCOC(=O)[C@@H]4[C@H]2C(=O)N(C(C)CO)[C@@H]3C1=O (some centres not stated) , the logged composite z-score turned out to be -0.241

----------
- Test Method Notes: FRG1 promoter luciferase signal modulators, primary screen, FRG1 inhibition for FSHD, cell-based, C2C12 myotubes, firefly/Renilla luciferase, luminescence (AID 1084)
- Condition Info: higher = more signal, called active from +8 up or from −8 down
The source made the active and inactive calls.
z-score overview

Known z-score results, listed for orientation:
{"columns": ["Compound", "z-score"],
 "data": [
  ["CN(C)C(=O)[C@]1(CCC(=O)OC(C)(C)C)N=C(c2ccc(OCCCO)cc2)O[C@@H]1c1ccccc1", "0.788 (inactive)"],
  ["COc1ccc(C#Cc2ccc3c(c2)[C@]2(C(=O)N3)[C@H](C(=O)N3CCc4cc(OC)c(OC)cc4C3)[C@H]3C(=O)O[C@H](c4ccccc4)[C@H](c4ccccc4)N3[C@@H]2c2ccc(O)cc2)cc1", "1.57 (inactive)"],
  ["C=C(CCCC)C(=O)CC[C@@H](OC(=O)c1ccccc1-c1ccccc1C(=O)O)c1cccc(OCCO)c1", "0.238 (inactive)"],
  ["C[C@]12C(=O)N(CCCCCCO)[C@@H]3C(=O)N(c4ccc(Cl)cc4)CC=CC31O[C@@H]1/C=C\\CCCOC(=O)C12 (stereo not given in full)", "-0.621 (inactive)"],
  ["CC(C)CN1C(=O)[C@@]2(c3ccc([N+](=O)[O-])cc3)CC(=O)N(CC34CC5CC(CC(C5)C3)C4)[C@@H]2c2ccc(CO)cc21", "0.0918 (inactive)"],
  ["C=CCC(OC(C)=O)[C@@H]1[C@@H](N(Cc2ccc(-c3ccccc3)cc2)C(=O)c2cccc3ccccc23)c2cc(OCCCO)ccc2N1C(=O)Cc1ccc2ccccc2c1 (stereo not given in full)", "-0.873 (inactive)"],
  ["NCCCCCCNC(=O)[C@@H]1C[C@@H]2C(=O)N3CCC[C@H]3C(=O)N2[C@@H]1c1ccc(O)cc1", "0.15 (inactive)"],
  ["COC(=O)[C@@]1(Cc2ccc(F)cc2)[C@H]2c3cc(C(=O)N4CCCC4)n(CCc4c[nH]c5ccc(OC)cc45)c3C[C@H]2CN1C(=O)c1ccccc1", "1.61 (inactive)"],
  ["NC(=O)N1C(=O)C2C(C1=O)C1C=C(CCCO)C2C(c2cccs2)N1Cc1cc2c(cc1Br)OCO2 (stereo not given)", "-1.85 (inactive)"],
  ["COCCOC(=O)N1C(=O)[C@@]2(c3cc(C#CCNC(N)=O)ccc31)[C@H](C(=O)N1CCCCCCC1)[C@H]1C(=O)O[C@H](c3ccccc3)[C@H](c3ccccc3)N1[C@@H]2c1ccc(O)cc1", "-0.134 (inactive)"]
]}

Short answer for CC(C)(C)OC(=O)CC[C@]1(C(=O)N2CCOCC2)N=C(c2ccc(OCCCO)cc2)O[C@H]1c1ccccc1 : z-score was -2.64 (inactive)

Please fill in: z-score reported for O=c1cccc(-c2ccc(C(F)(F)F)cc2)o1 = 3.27 (inactive)

----------
- Test Target: Epidermal growth factor receptor (Homo sapiens) (UniProt P00533)
- Sequence (P00533 whole entry, looked up): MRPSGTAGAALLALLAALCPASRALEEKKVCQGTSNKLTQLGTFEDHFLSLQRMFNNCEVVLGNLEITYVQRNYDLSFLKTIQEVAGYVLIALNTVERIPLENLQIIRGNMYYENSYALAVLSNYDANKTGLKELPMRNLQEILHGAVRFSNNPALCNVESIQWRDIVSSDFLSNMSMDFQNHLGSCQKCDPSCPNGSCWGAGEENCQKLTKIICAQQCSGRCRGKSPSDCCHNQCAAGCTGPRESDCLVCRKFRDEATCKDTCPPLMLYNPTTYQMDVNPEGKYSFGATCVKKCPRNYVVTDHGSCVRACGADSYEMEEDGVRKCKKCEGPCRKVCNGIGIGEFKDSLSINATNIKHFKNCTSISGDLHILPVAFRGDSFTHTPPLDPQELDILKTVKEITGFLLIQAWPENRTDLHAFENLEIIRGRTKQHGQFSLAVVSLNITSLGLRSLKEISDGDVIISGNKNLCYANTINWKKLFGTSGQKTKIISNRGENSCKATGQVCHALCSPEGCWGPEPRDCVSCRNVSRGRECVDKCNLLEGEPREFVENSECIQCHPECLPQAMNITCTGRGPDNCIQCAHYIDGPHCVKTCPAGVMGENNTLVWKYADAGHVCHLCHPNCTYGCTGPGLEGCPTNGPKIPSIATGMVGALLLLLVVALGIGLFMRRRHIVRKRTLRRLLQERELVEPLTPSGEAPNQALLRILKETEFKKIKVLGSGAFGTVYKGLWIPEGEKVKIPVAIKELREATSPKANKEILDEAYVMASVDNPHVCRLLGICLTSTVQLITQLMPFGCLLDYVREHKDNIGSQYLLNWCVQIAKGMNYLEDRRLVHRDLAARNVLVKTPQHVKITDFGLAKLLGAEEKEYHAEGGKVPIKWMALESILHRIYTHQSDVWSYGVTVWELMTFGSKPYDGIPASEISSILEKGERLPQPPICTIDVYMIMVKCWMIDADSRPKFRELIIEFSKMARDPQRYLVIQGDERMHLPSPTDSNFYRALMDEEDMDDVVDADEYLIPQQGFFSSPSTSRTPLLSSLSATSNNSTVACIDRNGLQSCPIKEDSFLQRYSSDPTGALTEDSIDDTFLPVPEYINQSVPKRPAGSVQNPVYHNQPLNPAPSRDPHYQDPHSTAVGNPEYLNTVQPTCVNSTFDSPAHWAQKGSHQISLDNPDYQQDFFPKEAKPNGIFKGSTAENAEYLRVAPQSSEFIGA
- Test Method Notes: EGFR binders on small-molecule microarrays, primary screen, biochemical, small-molecule microarray, 635 nm fluorescence (AID 1104);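 further: score merges 667 nm emission intensity with spot signal to noise over triplicate slides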
- Condition Info: EGFR binding, higher = more signal
Assign class by composite z-score: not lower than -0.3 means yes (1); lower than -0.3 means no (0).

Example entries and their recorded answers appear below.
{"columns": ["Compound", "Group"],
 "data": [
  ["COc1cc2c(cc1O)C(C)N(Cc1cc3c(cc1Br)OCO3)CC2 (configuration not stated)", "yes (1)"],
  ["COCCOC(=O)N1C(=O)[C@@]2(c3cc(C#CC4=CCCCC4)ccc31)[C@H](c1ccc(O)cc1)N1[C@H](c3ccccc3)[C@H](c3ccccc3)OC(=O)[C@H]1[C@@H]2C(=O)Nc1nc2ccccc2s1", "yes (1)"],
  ["C[C@@H](OCc1ccccc1)C1NC(=O)[C@@]23C(=O)N[C@@H](Cc4ccccc4)C2[C@H](C)[C@@]2(C)O[C@H]2C3/C=C/C/C=C\\CNC(=O)CNC1=O (some centres not stated)", "no (0)"]
]}

Qu. Quick check: does COCCOC(=O)N1C(=O)[C@@]2(c3cc(C#CC4(O)CCCCCC4)ccc31)[C@H](C(N)=O)[C@H]1C(=O)O[C@H](c3ccccc3)[C@H](c3ccccc3)N1[C@@H]2c1ccc(O)cc1 have composite z-score greater than or equal to -0.3?
Ans. yes (1)

Qu. For this compound, is measured composite z-score -0.3 or higher? COC(=O)[C@@]1(Cc2ccccc2)[C@H]2c3cc(C(=O)N4CCCC4)n(C[C@H](O)CO)c3C[C@H]2CN1C(=O)c1ccccc1
Ans. no (0)

Qu. Form field: composite z-score at least -0.3? Entry: O=c1cccc(-c2ccc(C(F)(F)F)cc2)o1
Ans. yes (1)
